These entries and their values trace back to ChEMBL document CHEMBL5724914.

Conditions: human gut metagenome, 24 h, 2 µM; also: call rule not given here
measure: Bacterial Biotransformation

Example compounds with recorded Bacterial Biotransformation:
Query: Recorded Bacterial Biotransformation of CCN(CC)CCOC(=O)C1(C2CCCCC2)CCCCC1 , please.
Response: Compound NOT metabolized

Query: Would you mind doing CCN1CCCC1CNC(=O)c1cc(S(=O)(=O)CC)c(N)cc1OC (stereo not given) [AMISULPRIDE] as well?
Response: Compound NOT metabolized

Query: Would you mind doing CCOc1cc(CC(=O)N[C@@H](CC(C)C)c2ccccc2N2CCCCC2)ccc1C(=O)O [REPAGLINIDE] as well?
Response: Compound metabolized

Query: Would you mind doing CC#CCn1c(N2CCC[C@@H](N)C2)nc2c1c(=O)n(Cc1nc(C)c3ccccc3n1)c(=O)n2C as well?
Response: Compound NOT metabolized

Your task in this section: give Bacterial Biotransformation for each listed record.
1. CN(C)C(=O)Oc1cccc([N+](C)(C)C)c1.[Br-] [NEOSTIGMINE BROMIDE]
2. CC(C)(C)N.CCC[C@H](N[C@@H](C)C(=O)N1[C@H](C(=O)O)C[C@@H]2CCCC[C@@H]21)C(=O)OCC
3. CCN(CC)C(=O)C1(c2ccccc2)CC1CN (stereo not given)

Response:
1: Compound NOT metabolized; 2: Compound metabolized; 3: Compound NOT metabolized

Your task in this section: give Bacterial Biotransformation for each listed record.
1. COc1cc(NC(C)CCCN)c2ncccc2c1.O=P(O)(O)O.O=P(O)(O)O (stereo not given) [PRIMAQUINE PHOSPHATE]
2. CC12CC3CC(C)(C1)CC(N)(C3)C2 [MEMANTINE]
3. Nc1nc(N)nc(-c2cc(Cl)ccc2Cl)n1.O=C(O)/C=C\C(=O)O [IRSOGLADINE MALEATE]
4. COc1ccc2c(c1)c(CC(=O)O)c(C)n2C(=O)c1ccc(Cl)cc1

Response:
Compound NOT metabolized
Compound NOT metabolized
Compound NOT metabolized
Compound metabolized

---

Experiment: The drug is tested on WLS-006 corresponding to human gut metagenome with ENA study accession number: PRJEB37062 and ENA sample accession number: ERS12561741 for biotransformation under anaerobic condition. The drug concentrations were measured over 9 timepoints collected between 0 and 24 hours of incubation by liquid-chromatography-coupled mass spectrometry (LC–MS)
Conditions: 2 µM
measure: Bacterial Biotransformation

Query: Recorded Bacterial Biotransformation of C#C[C@]1(OC(C)=O)CC[C@H]2[C@@H]3CCC4=C/C(=N/O)CC[C@@H]4[C@H]3CC[C@@]21CC [NORGESTIMATE] , please.
Response: Compound metabolized

Query: Would you mind doing CCOC(=O)C1=C[C@]2(CC)CCCN3CCc4c(n1c1ccccc41)[C@@H]32 as well?
Response: Compound metabolized

Query: Would you mind doing CCOC(=O)C1=C(C)NC(C)=C(C(=O)OC)C1c1cccc([N+](=O)[O-])c1 (centres undefined) as well?
Response: Compound metabolized

---

Conditions: human gut metagenome, 24 h, 2 µM
measure: Bacterial Biotransformation

Example compounds with recorded Bacterial Biotransformation:
Query: Recorded Bacterial Biotransformation of COc1cc(C(=O)NCc2ccc(OCCN(C)C)cc2)cc(OC)c1OC [TRIMETHOBENZAMIDE] , please.
Response: Compound NOT metabolized

Query: Would you mind doing CN[C@H]1CC[C@@H](c2ccc(Cl)c(Cl)c2)c2ccccc21 as well?
Response: Compound NOT metabolized

Query: Would you mind doing CC#C[C@]1(O)CC[C@H]2[C@@H]3CCC4=CC(=O)CCC4=C3[C@@H](c3ccc(N(C)C)cc3)C[C@@]21C as well?
Response: Compound NOT metabolized

Query: Would you mind doing COc1ccnc(C[S+]([O-])c2nc3ccc(OC(F)F)cc3[nH]2)c1OC (configuration not stated) as well?
Response: Compound metabolized

Query: Would you mind doing CN1CCN(C2=Nc3ccccc3Oc3ccc(Cl)cc32)CC1.O=C(O)CCC(=O)O [LOXAPINE SUCCINATE] as well?
Response: Compound NOT metabolized

Query: Would you mind doing C[C@]12C=CC(=O)C=C1CC[C@@H]1[C@@H]2C(=O)C[C@@]2(C)[C@H]1CC[C@]2(O)C(=O)CO as well?
Response: Compound metabolized

# input for lookup
Query: Recorded Bacterial Biotransformation of CNNCc1ccc(C(=O)NC(C)C)cc1 , please.
Response: Compound NOT metabolized

---

Assay: The drug is tested on Z-013 corresponding to rabbit gut metagenome with ENA study accession number: PRJEB37062 and ENA sample accession number: ERS12561813 for biotransformation under anaerobic condition. The drug concentrations were measured over 9 timepoints collected between 0 and 24 hours of incubation by liquid-chromatography-coupled mass spectrometry (LC–MS)
Details: 2 µM
measure: Bacterial Biotransformation

Example compounds with recorded Bacterial Biotransformation:
Query: Recorded Bacterial Biotransformation of C#C[C@]1(OC(C)=O)CC[C@H]2[C@@H]3CCC4=C[C@@H](OC(C)=O)CC[C@@H]4[C@H]3CC[C@@]21C [ETHYNODIOL DIACETATE] , please.
Response: Compound metabolized

Query: Would you mind doing CC(C)C[C@H]1C(=O)N2CCC[C@H]2[C@]2(O)O[C@](NC(=O)[C@@H]3C=C4c5cccc6[nH]c(Br)c(c56)C[C@H]4N(C)C3)(C(C)C)C(=O)N12.CS(=O)(=O)O [BROMOCRIPTINE MESYLATE] as well?
Response: Compound metabolized

Query: Would you mind doing CC(=O)O[C@]1(C(C)=O)CC[C@H]2[C@@H]3C=C(C)C4=CC(=O)CC[C@]4(C)[C@H]3CC[C@@]21C [MEGESTROL ACETATE] as well?
Response: Compound metabolized

Query: Would you mind doing CN(C/C=C/C#CC(C)(C)C)Cc1cccc2ccccc12 as well?
Response: Compound NOT metabolized

Query: Would you mind doing COc1cc2nc(N3CCN(C(=O)C4CCCO4)CC3)nc(N)c2cc1OC (configuration not stated) as well?
Response: Compound NOT metabolized

Your task in this section: give Bacterial Biotransformation for each listed record.
1. CC(=O)OCC(=O)NCCCOc1cccc(CN2CCCCC2)c1 [ROXATIDINE ACETATE]
2. CC1=C(CC(=O)O)c2cc(F)ccc2/C1=C\c1ccc([S+](C)[O-])cc1 (configuration not stated)

Response:
1. Compound NOT metabolized
2. Compound NOT metabolized

---

Conditions: human gut metagenome, 24 h, 2 µM
measure: Bacterial Biotransformation

Example compounds with recorded Bacterial Biotransformation:
Query: Recorded Bacterial Biotransformation of COc1cc(C(=O)NCc2ccc(OCCN(C)C)cc2)cc(OC)c1OC [TRIMETHOBENZAMIDE] , please.
Response: Compound NOT metabolized

Query: Would you mind doing Cc1ccccc1C(OCCN(C)C)c1ccccc1.O=C(O)CC(O)(CC(=O)O)C(=O)O (stereo unspecified) [ORPHENADRINE CITRATE] as well?
Response: Compound NOT metabolized

Query: Would you mind doing CC(=O)Nc1ccc(OC(C)=O)cc1 [DIACETAMATE] as well?
Response: Compound metabolized

Query: Would you mind doing CN(C)C(=O)Oc1cc(OC(=O)N(C)C)cc(C(O)CNC(C)(C)C)c1 (stereo unspecified) as well?
Response: Compound NOT metabolized

Query: Would you mind doing CCCN1C[C@H](CSC)C[C@@H]2c3cccc4[nH]cc(c34)C[C@H]21.CS(=O)(=O)O [PERGOLIDE MESYLATE] as well?
Response: Compound NOT metabolized

Your task in this section: give Bacterial Biotransformation for each listed record.
1. CC1=C(CC(=O)O)c2cc(F)ccc2/C1=C\c1ccc([S+](C)[O-])cc1 (stereo unspecified)
2. COC(=O)C(c1ccccc1)C1CCCCN1 (stereo unspecified) [METHYLPHENIDATE]
3. C#C[C@]1(OC(C)=O)CC[C@H]2[C@@H]3CCC4=CC(=O)CC[C@@H]4[C@H]3CC[C@@]21C [NORETHINDRONE ACETATE]
4. O=C1CN2Cc3c(ccc(Cl)c3Cl)N=C2N1 [ANAGRELIDE]
5. CN(C/C=C/C#CC(C)(C)C)Cc1cccc2ccccc12
6. CCOC(=O)C1=C[C@]2(CC)CCCN3CCc4c(n1c1ccccc41)[C@@H]32
7. COc1cc2nc(N3CCN(C(=O)C4CCCO4)CC3)nc(N)c2cc1OC (stereo unspecified)

Response:
["Compound metabolized", "Compound NOT metabolized", "Compound metabolized", "Compound NOT metabolized", "Compound NOT metabolized", "Compound NOT metabolized", "Compound NOT metabolized"]

Your task in this section: give Bacterial Biotransformation for each listed record.
1. CN(CCOc1ccc(CC2SC(=O)NC2=O)cc1)c1ccccn1.O=C(O)/C=C\C(=O)O (stereo unspecified) [ROSIGLITAZONE MALEATE]
2. Nc1nnc(-c2cccc(Cl)c2Cl)c(N)n1
3. CCN(C(C)=O)c1cccc(-c2ccnc3c(C#N)cnn23)c1
4. CCN(CC)CCNC(=O)c1ccc(NC(C)=O)cc1 [ACECAINIDE]
5. CCOc1cc(CC(=O)N[C@@H](CC(C)C)c2ccccc2N2CCCCC2)ccc1C(=O)O [REPAGLINIDE]
6. COc1ccc2c(c1)c(CC(=O)O)c(C)n2C(=O)c1ccc(Cl)cc1
7. COc1ccc(C(CN(C)C)C2(O)CCCCC2)cc1 (stereo unspecified)

Response:
1: Compound NOT metabolized; 2: Compound NOT metabolized; 3: Compound metabolized; 4: Compound NOT metabolized; 5: Compound metabolized; 6: Compound metabolized; 7: Compound NOT metabolized

Your task in this section: give Bacterial Biotransformation for each listed record.
1. CC(=O)OCC(=O)NCCCOc1cccc(CN2CCCCC2)c1 [ROXATIDINE ACETATE]
2. C[C@]12CCC(=O)C=C1[C@@H]1C[C@@H]1[C@H]1[C@@H]3[C@@H]4C[C@@H]4[C@@]4(CCC(=O)O4)[C@@]3(C)CC[C@@H]12
3. CC(C)C[C@H]1C(=O)N2CCC[C@H]2[C@]2(O)O[C@](NC(=O)[C@@H]3C=C4c5cccc6[nH]c(Br)c(c56)C[C@H]4N(C)C3)(C(C)C)C(=O)N12.CS(=O)(=O)O [BROMOCRIPTINE MESYLATE]
4. CC(C)(C)NCC(O)COc1cccc2c1CC(O)C(O)C2 (stereo unspecified)
5. CN1CCC(=C2c3ccccc3CC(=O)c3sccc32)CC1.O=C(O)/C=C/C(=O)O [KETOTIFEN FUMARATE]
6. CC(=O)Oc1ccc(C(c2ccc(OC(C)=O)cc2)c2ccccn2)cc1
7. CC(C)c1c(CN(C)C(C)Cc2ccccc2)n(C)n(-c2ccccc2)c1=O (stereo unspecified)

Response:
["Compound metabolized", "Compound metabolized", "Compound metabolized", "Compound NOT metabolized", "Compound NOT metabolized", "Compound metabolized", "Compound metabolized"]
